tested on: Mus musculus; assay: Compound was tested for diuretic activity in saline loaded mice, activity is expressed as the sodium present in urine as mean milli equivalent/kg per 5 hr at 128 mg/kg oral dose; assay type: functional
measure-name: mequiv of Na+/kg

Would you please look over these solved cases?
[[record]]
smiles_data = "CCC1=Cc2cc(OCC(=O)O)c(Cl)c(Cl)c2S1(=O)=O"
tgt = "Mus musculus"
meas_value = "6.51 0-5h"

[[record]]
smiles_data = "CC(C)(O)c1cc2cc(OCC(=O)O)c(Cl)c(Cl)c2s1"
tgt = "Mus musculus"
meas_value = "6.24 0-5h"

[[record]]
smiles_data = "CCCC1=Cc2cc(OCC(=O)O)c(Cl)c(Cl)c2S1(=O)=O"
tgt = "Mus musculus"
meas_value = "4.99 0-5h"


Would you be so kind as to report mequiv of Na+/kg for each listed record?
1. CC1=Cc2cc(OCC(=O)O)c(Cl)c(Cl)c2S1(=O)=O
2. CC(C)C1=Cc2cc(OCC(=O)O)c(Cl)c(Cl)c2S1(=O)=O

Result ::
6.36 0-5h
5.32 0-5h

====

I'd appreciate it if you could supply Change in BP values for the items below.
system: Rattus norvegicus; experiment: Hypotensive activity was determined in Spontaneously hypertensive rats (SHR) and peak decrease in systolic blood pressure on third day,2h post administration of 10 mg/kg oral dose was determined; type: functional, Artery
Answers are plain numbers, in mmHg.

The examples below pair each entry with its known result.
[[record]]
smiles_data = "Cc1cc2cc(OCC(=O)O)c(Cl)c(Cl)c2s1"
measure_name = "Change in BP"
meas_value = -33

[[record]]
smiles_data = "CCCCc1cc2cc(OCC(=O)O)c(Cl)c(Cl)c2s1"
measure_name = "Change in BP"
meas_value = -17

[[record]]
smiles_data = "CCc1cc2cc(OCC(=O)O)c(Cl)c(Cl)c2s1"
measure_name = "Change in BP"
meas_value = -21


Could you now consider this next molecule?
Query :: # query: Change in BP of entry CC(C)c1cc2cc(OCC(=O)O)c(Cl)c(Cl)c2s1
Result :: -14
